Each recorded value in this set is attributed to paper PMC5540273.

%Inh overview
System: TXK
measurement.context: concentration: 1 μM, replicates: in singlicate; n = 1;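 note: KINOMEscan kinase panel screen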

molecule	%Inh, %
Cl.NC(=O)c1cccc(Nc2nccc(Nc3ccc(Oc4c(Cl)cccc4Cl)c(Cl)c3)n2)c1	0
O=c1[nH]cc(-c2ccc(N3CCOCC3)cc2)c2sc(-c3cn[nH]c3)cc12	76
Cl.Cl.NCC(NC(=O)c1cc(-c2ccccc2)c(-c2ccnc3[nH]ccc23)s1)c1ccccc1 (stereo not shown)	45
O=C(Nc1n[nH]c2cc(-c3ccoc3)ccc12)C1CC1	20

###

System: SRC
measurement.context: concentration: 1 μM, replicates: in singlicate; n = 1
Quick rule for you: %Inh at 10% or higher means y, lower means n.

molecule	cat
Cc1ccc(S(=O)(=O)Nc2ccc(Nc3nccc(Nc4cccc5[nH]ncc45)n3)cc2)cc1	y
Cl.Cl.NCC(NCc1ccc(-c2ccnc3[nH]ccc23)s1)c1ccccc1 (centres unmarked)	n
COc1cc2c(cc1OCCN1CCNCC1)ncc1c3ccc(C#N)cc3[nH]c21	n
COc1cc(Nc2ncc3c(C)nc(-c4cc5ccccc5[nH]4)n3n2)cc(OC)c1OC	y
Cc1ccc(C(=O)Nc2ccc(Nc3ccnc4cc(-c5nccs5)ccc34)cc2O)cc1.Cl	y
CC(=O)Nc1nc2cnc(Nc3cc(NC(=O)c4cccc(C5(C#N)CC5)c4Cl)ccc3C)nc2s1	y
CCn1c(-c2nonc2N)nc2c(C#CC(C)(C)O)nc(OC[C@H](N)c3ccccc3)cc21	n
Oc1cc(Nc2ccnc3cc(I)ccc23)ccc1F	y
COc1ccc(-c2coc3ccc(-c4nnc(SCc5ccc(OC)c(C(F)(F)F)c5)o4)cc23)cc1	n
CC(C)(C)c1ccc2nccc(Nc3cccc(O)c3)c2c1	y
Cl.Cl.NCC(NC(=O)c1cc(-c2ccccc2)c(-c2ccnc3[nH]ccc23)s1)c1ccccc1 (centres unmarked)	y
CN1CCN(CCCNc2nccc(-c3c(-c4ccc(F)cc4)nn4cc(C(F)(F)F)ccc34)n2)CC1	y
CSc1cccc2c(-c3ccncn3)c(-c3ccc(F)cc3)nn12	n
CNC(=O)c1ccccc1Nc1nc(Nc2ccc(N3CCOCC3)cc2)ncc1Cl.Cl	y
O=C(NC1CCN(c2ccnc(Nc3ccc(F)cc3)n2)C1)c1cc2ccccc2s1 (centres unmarked)	n

###

The entries below are paired with their reported %Inh.
Tested on: YANK3
Construct: gene STK32C
measurement.context: concentration: 1 μM, replicates: in singlicate; n = 1
metric: %Inh (%)

compound	system	measured.value
O=C(NC1CCN(c2ccnc(Nc3ccc(F)cc3)n2)C1)c1cc2ccccc2s1 (centres unmarked)	YANK3	29
Cc1ccc(C(=O)Nc2ccc(Nc3ccnc4cc(-c5nccs5)ccc34)cc2O)cc1.Cl	YANK3	11
CN(C)S(=O)(=O)c1cc(-c2ccc3nccc(-c4cccc(S(N)(=O)=O)c4)c3c2)cnc1N	YANK3	2
Cc1ccc(S(=O)(=O)Nc2ccc(Nc3nccc(Nc4cccc5[nH]ncc45)n3)cc2)cc1	YANK3	3
CNC(=O)c1ccccc1Nc1nc(Nc2ccc(N3CCOCC3)cc2)ncc1Cl.Cl	YANK3	24
COc1cccc(C2=C(Nc3ccc(Cl)c(C(=O)O)c3)C(=O)NC2=O)c1	YANK3	0
COc1cccc(-c2ccc3c(NC(=O)C4CC4)n[nH]c3n2)c1	YANK3	0
O=C(Nc1n[nH]c2nc(-c3ccc(O)cc3)ccc12)C1CC1	YANK3	0

###

System: PIKFYVE
measurement.context: concentration: 1 μM, replicates: in singlicate; n = 1
Classify by measured %Inh: Y if it is equal to or exceeds 20%, N if it is smaller.

compound	system	cat
CC(=O)N1CCN(c2ccc(Nc3nccc(-c4sc(C(C)C)nc4-c4cccc(NS(=O)(=O)c5cccc(Cl)c5)c4)n3)cn2)CC1 [GSK1660437]	PIKFYVE	N
CSc1cccc2c(-c3ccncn3)c(-c3ccc(F)cc3)nn12 [GW514786]	PIKFYVE	N
Cc1ccc(S(=O)(=O)Nc2ccc(Nc3nccc(Nc4cccc5[nH]ncc45)n3)cc2)cc1 [GSK581271]	PIKFYVE	N
Cc1ccc(C(=O)N2CC[C@@H](O)C2)cc1-n1c(C)cc(OCc2ccc(F)cc2F)c(Br)c1=O	PIKFYVE	Y
COc1cc(Nc2nccc(-c3c(-c4cccc(NC(=O)c5c(F)cccc5F)c4)nn4ccccc34)n2)cc(OC)c1OC [GSK323521]	PIKFYVE	N
CCn1c(-c2nonc2N)nc2c(C#CC(C)(C)O)ncc(OCCCCN)c21.O=C(O)C(F)(F)F.O=C(O)C(F)(F)F [GSK507274]	PIKFYVE	Y
Cl.Cl.NCC(NC(=O)c1cc(-c2ccccc2)c(-c2ccnc3[nH]ccc23)s1)c1ccccc1 (stereo not shown) [GSK1321561]	PIKFYVE	N
O=C(Nc1cccc(-c2nn3ncccc3c2-c2ccnc(Nc3ccccc3)n2)c1)c1c(F)cccc1F [GSK198271]	PIKFYVE	N
CN(C)S(=O)(=O)c1cc(-c2ccc3nccc(-c4cccc(S(N)(=O)=O)c4)c3c2)cnc1N [GSK1669921]	PIKFYVE	Y
Cl.c1ccc(-c2ccc3c(Nc4ccc5[nH]ccc5c4)ccnc3c2)nc1 [GW440138]	PIKFYVE	N
C[C@@H]1CC[C@@H](C(=O)Nc2ccccc2)CN1c1cc(-c2ccc3c(N)n[nH]c3c2)nc(N)n1 [GSK2286062]	PIKFYVE	N
COc1cc(Nc2ncc3c(C)nc(-c4cc5ccccc5[nH]4)n3n2)cc(OC)c1OC [GW869516]	PIKFYVE	N
COc1ccc(-c2coc3ccc(-c4nnc(SCc5ccc(OC)c(C(F)(F)F)c5)o4)cc23)cc1	PIKFYVE	N
Cc1cccc(Nc2nc(N[C@H]3CCNC3)ncc2C(N)=O)c1.Cl [GSK2197149]	PIKFYVE	N
COc1cc(Nc2nccc(-c3c(-c4cccc(NC(=O)c5c(F)cccc5F)c4)nn4ncccc34)n2)cc(OC)c1OC [GSK327238]	PIKFYVE	N
